The compounds listed here are annotated with their pIC50.
- System: MDA-MB-231 human breast cancer cells
- Procedure Text: Cell proliferation assay (CellTiter-Glo, 72 hours treatment)
- Assay type: cell-based
- Test Parameters: Homo sapiens; MDA-MB-231 cells, 72 hours at 37° C., CellTiter-Glo; read-out: MDA-MB-231 cell proliferation assay (IC50)
pIC50: −log10 of the molar value.

Reference set, count: 4
# Compound, pIC50
data = [
    ("COc1nc(C#N)cc2c1[C@]1(O)[C@H](O)[C@H](CN3CCCC3)[C@@H](c3ccccc3)[C@]1(c1ccc(C#N)cc1)O2 (racemic) [158Fc]", "> 7.00"),
    ("Cc1ccc([C@@]23Oc4cc(Cl)cnc4[C@]2(O)[C@H](O)[C@H](C(=O)N(C)C)[C@H]3c2ccccc2)cc1 (single isomer, unassigned) [7F]", "6.00 to 7.00"),
    ("COc1cncc2c1[C@]1(O)[C@@H](CNCc3ccnn3C)[C@H](CO)[C@@H](c3ccccc3)[C@]1(c1ccc(C#N)cc1)O2 (racemic) [204F]", "> 7.00"),
    ("CN(C)C[C@H]1[C@@H](O)[C@@]2(O)c3ncc(Cl)cc3O[C@@]2(c2ccc(C#N)cc2)[C@@H]1c1ccccc1 (racemic) [40Fb]", "6.00 to 7.00"),
]

Consider the compound COc1cncc2c1[C@]1(O)[C@H](O)[C@H](C(=O)N3[C@@H]4CC[C@H]3COC4)[C@@H](c3ccccc3)[C@]1(c1ccc(Br)cc1)O2 (racemic) [264F] and give its measured pIC50. > 7.00

Consider the compound N#C[C@@H]1C[C@@H](c2ccccc2)[C@]2(c3ccc(Br)cc3)Oc3cc(Cl)cnc3[C@]12O (racemic) [47F] and give its measured pIC50. < 6.00
